What DR147 Cross-binding was measured for each of the following?
Test system: HLA-DR molecules (DR1, DR4w4, DR7, DRB5*0101, DRB1*1501, DRB1*1101, DRB1*0802, DRB1*1302)
Test: DR supertype cross-reactive binding
Parameters: species or system human
Details: number of DR1, DR4w4, DR7 bound, Table XXVIII
Answers are plain numbers.

// each listed molecule needs a value for DR147 Cross-binding
1. CSCC[C@H](NC(=O)[C@H](CC(=O)O)NC(=O)[C@@H](NC(=O)CN)[C@@H](C)O)C(=O)N[C@@H](CCCCN)C(=O)N[C@@H](CC(C)C)C(=O)N[C@@H](CCCNC(=N)N)C(=O)N[C@@H](CC(C)C)C(=O)N1CCC[C@H]1C(=O)N[C@@H](C)C(=O)N[C@@H](CO)C(=O)N1CCC[C@H]1C(=O)N[C@@H](CCC(=O)O)C(=O)N[C@H](C(=O)N[C@@H](Cc1c[nH]cn1)C(=O)O)[C@@H](C)O
2. CC[C@H](C)[C@H](NC(=O)[C@H](C)NC(=O)[C@@H](NC(=O)[C@@H]1CCCN1C(=O)[C@@H](NC(=O)[C@H](CCCCN)NC(=O)[C@@H](NC(=O)[C@H](CC(N)=O)NC(=O)[C@H](CCC(=O)O)NC(=O)CN)C(C)C)[C@@H](C)CC)C(C)C)C(=O)N[C@@H](CCCCN)C(=O)N[C@H](C(=O)N[C@@H](CC(C)C)C(=O)N[C@@H](CCCNC(=N)N)C(=O)N[C@@H](CCC(=O)O)C(=O)O)C(C)C
3. CC[C@H](C)[C@H](NC(=O)CNC(=O)[C@H](CC(=O)O)NC(=O)[C@H](Cc1ccc(O)cc1)NC(=O)[C@@H]1CCCN1C(=O)[C@H](CCCCN)NC(=O)[C@H](C)NC(=O)CNC(=O)[C@H](Cc1ccccc1)NC(=O)[C@@H](NC(=O)[C@H](CCSC)NC(=O)[C@H](CC(C)C)NC(=O)[C@H](CCC(=O)O)NC(=O)[C@H](Cc1c[nH]c2ccccc12)NC(=O)[C@@H](N)C(C)C)[C@@H](C)O)C(=O)O

output:
[0, 2, 3]
